Tested on: Plasmodium berghei
Assay: Screen against P. berghei liver stage (PbLuc), transformed with Luciferase, at 10uM
Assay type: functional, HepG2
Settings: tested at 10 uM
The whole screen tested about 69,000 compounds, of which about 8,600 (12%) showed an effect of 50% or more. What follows is part of a selection rich in strong results, with near analogues and random picks from the rest.
Mark not satisfied for INHIBITION values under 20%, and satisfied for everything at or above.

>>> print(df.to_string())
                                query_smiles              system  assigned_label
 0         O=C(NCC1(O)CCC1)c1c(O)cc(Cl)cc1Cl  Plasmodium berghei       satisfied
 1          CN(C)S(=O)(=O)N1CCC(c2ccncc2)CC1  Plasmodium berghei   not satisfied
 2   COCc1ccc(CNc2cnn(C(C)(C)C)c(=O)c2Cl)cc1  Plasmodium berghei       satisfied
 3  Cc1ccc2[nH]c(C(=O)N3CCC4(CC3)C(=O)NCCN4C)nc2c1  Plasmodium berghei   not satisfied
 4  CN(C)CCNC(=O)CCC1CCN(C(=O)c2ccc(Cl)cc2O)CC1  Plasmodium berghei       satisfied
 5  COc1ccc(CN2C[C@H]3CCC[C@@H](CN(C)C)[C@H]3C2)cn1  Plasmodium berghei       satisfied
 6  COc1ccc(C[C@H]2CN(c3cc(OC)ncn3)CC[C@H]2OC)cc1  Plasmodium berghei       satisfied
 7            CCc1c(NCc2ccc(F)cc2)cnn1CC(C)C  Plasmodium berghei       satisfied
 8  CCCc1cc(CN(C)C2CC(C)(C)NC(C)(C)C2)n[nH]1  Plasmodium berghei   not satisfied
 9       CC(C)n1c(=O)c2ccccc2n(CCCN(C)C)c1=O  Plasmodium berghei       satisfied
10  COCc1cc(CN(C)C(=O)c2c[nH]nc2-c2cccc(F)c2)n[nH]1  Plasmodium berghei   not satisfied
11  COC(=O)c1cc(C(=O)N2CCC(C)CC2)n(-c2ccccc2)n1  Plasmodium berghei       satisfied
12           O=C(NCC1(O)CCC1)c1c(O)cc(F)cc1F  Plasmodium berghei       satisfied
13  COc1ccc(C(=O)N(Cc2cnn(C)c2)C(C)C)cc1OC(F)F  Plasmodium berghei       satisfied
14      COCc1cccc(CNC(=O)CNc2ccccc2C(C)=O)c1  Plasmodium berghei   not satisfied
15  COc1ccc(C[C@H]2CN(c3cc(OC)ncn3)CC[C@@H]2OC)cc1  Plasmodium berghei       satisfied
16  Cc1cc(CN2CC[C@H]3C[C@H](C(=O)Nc4cccnc4C)O[C@@H]3C2)no1  Plasmodium berghei       satisfied
17  COc1ccc(C[C@H]2CN(C(=O)c3ccc(C)nc3)CC[C@@H]2OC)cc1  Plasmodium berghei   not satisfied
18  COc1ccc(C[C@H]2CN(C(=O)c3ncccn3)CC[C@@H]2OC)cc1  Plasmodium berghei       satisfied
19       COc1cc(CNC(=O)CNc2cc(Cl)ccc2OC)ccn1  Plasmodium berghei   not satisfied
20             CCCc1cc(CN(C)C2CSCCSC2)n[nH]1  Plasmodium berghei       satisfied
21      Cc1cc2nc(C(C)C)cc(NCCNc3ncccc3C)n2n1  Plasmodium berghei       satisfied
22  CN(C)CCNC(=O)CCC1CCN(C(=O)c2ccc(O)cn2)CC1  Plasmodium berghei       satisfied
23        CC(C)(CO)Nc1c(NCc2ccccc2)c(=O)c1=O  Plasmodium berghei   not satisfied
